Biological target: neuronal nitric oxide synthase (Rattus norvegicus, UniProt P29476)
Construct: Enzyme was isolated from rat hippocampus or cerebellum; from tissue; host or cells: hippocampus or cerebellum of male Sprague-Dawley rat, 20,000 g supernatant
Sequence (P29476 whole entry): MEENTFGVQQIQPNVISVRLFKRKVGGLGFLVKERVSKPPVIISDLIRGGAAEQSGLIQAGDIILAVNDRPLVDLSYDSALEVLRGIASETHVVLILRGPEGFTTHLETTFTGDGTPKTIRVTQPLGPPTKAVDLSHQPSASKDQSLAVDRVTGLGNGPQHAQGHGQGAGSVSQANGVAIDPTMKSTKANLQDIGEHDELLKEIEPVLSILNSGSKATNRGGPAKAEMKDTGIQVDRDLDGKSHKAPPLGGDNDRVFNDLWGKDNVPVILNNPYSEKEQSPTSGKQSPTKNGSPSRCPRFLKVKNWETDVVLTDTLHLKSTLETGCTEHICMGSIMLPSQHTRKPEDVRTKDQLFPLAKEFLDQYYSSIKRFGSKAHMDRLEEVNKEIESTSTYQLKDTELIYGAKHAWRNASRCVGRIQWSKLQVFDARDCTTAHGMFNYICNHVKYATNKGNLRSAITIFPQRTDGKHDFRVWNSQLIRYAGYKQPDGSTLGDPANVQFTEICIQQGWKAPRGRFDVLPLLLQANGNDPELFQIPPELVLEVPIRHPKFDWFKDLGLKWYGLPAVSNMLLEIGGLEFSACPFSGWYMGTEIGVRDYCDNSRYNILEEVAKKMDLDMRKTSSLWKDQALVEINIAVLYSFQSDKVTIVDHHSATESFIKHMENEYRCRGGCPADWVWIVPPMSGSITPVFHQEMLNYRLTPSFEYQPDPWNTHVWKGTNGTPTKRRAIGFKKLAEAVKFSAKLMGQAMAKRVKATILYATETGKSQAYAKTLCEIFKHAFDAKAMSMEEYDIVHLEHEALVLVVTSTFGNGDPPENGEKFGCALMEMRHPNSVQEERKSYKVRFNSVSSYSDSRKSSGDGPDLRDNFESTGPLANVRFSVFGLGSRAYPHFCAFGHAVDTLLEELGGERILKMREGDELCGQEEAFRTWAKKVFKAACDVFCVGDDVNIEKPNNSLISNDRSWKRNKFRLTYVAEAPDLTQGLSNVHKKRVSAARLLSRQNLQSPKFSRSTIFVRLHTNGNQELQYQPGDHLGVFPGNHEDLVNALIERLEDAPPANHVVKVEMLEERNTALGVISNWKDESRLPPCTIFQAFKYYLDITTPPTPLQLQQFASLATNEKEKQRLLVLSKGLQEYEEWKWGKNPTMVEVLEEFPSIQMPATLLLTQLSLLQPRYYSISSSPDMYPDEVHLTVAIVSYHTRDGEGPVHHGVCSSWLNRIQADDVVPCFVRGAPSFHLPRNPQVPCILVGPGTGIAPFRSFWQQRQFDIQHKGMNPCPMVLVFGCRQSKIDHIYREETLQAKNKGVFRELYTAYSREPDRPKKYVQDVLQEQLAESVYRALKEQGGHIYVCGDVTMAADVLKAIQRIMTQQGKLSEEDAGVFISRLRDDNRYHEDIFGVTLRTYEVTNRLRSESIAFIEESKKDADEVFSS
Assay: Screen A: screen for neuronal nitric oxide synthase inhibiting activity (conversion of 3H-L-arginine to 3H-L-citrulline)
Format: biochemical
quantityKind: IC50

[
  {
    "compound": "CCSC(=N)Nc1ccc2c(c1)CNCC2 [Example 1]",
    "result": "< 10 µM"
  }
]

----------
Biological target: neuronal nitric oxide synthase (Rattus norvegicus)
Construct: Enzyme was isolated from rat hippocampus or cerebellum; from tissue; host or cells: hippocampus or cerebellum of male Sprague-Dawley rat, 20,000 g supernatant
Test: Screen A: screen for neuronal nitric oxide synthase inhibiting activity (conversion of 3H-L-arginine to 3H-L-citrulline)
Type: biochemical
Settings: neuronal isoform, rat hippocampus or cerebellum supernatant; read-out: IC50 (Screen A)

[
  {
    "compound": "CCSC(=N)Nc1ccc2c(c1)CC(N(C)Cc1cccc(Cl)c1)C2 (stereo not shown)",
    "IC50": "< 10 µM"
  }
]
